System under test: T1, CD123 (Homo sapiens (Human), UniProt P26951 19-305, limits assumed)
T1 construct: The CD123 construct used in the ELISA is not described; also called CD123-Signal
T1 sequence: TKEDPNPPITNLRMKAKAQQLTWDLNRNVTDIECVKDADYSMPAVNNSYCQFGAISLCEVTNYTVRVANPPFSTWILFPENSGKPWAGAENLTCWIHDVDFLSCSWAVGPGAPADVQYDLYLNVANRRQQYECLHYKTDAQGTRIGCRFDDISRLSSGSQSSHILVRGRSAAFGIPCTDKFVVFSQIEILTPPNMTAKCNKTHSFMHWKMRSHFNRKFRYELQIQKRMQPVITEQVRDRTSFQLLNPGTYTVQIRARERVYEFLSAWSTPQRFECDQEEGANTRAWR
Test summary: ELISA
Parameters: unit not given here
Could you please report measured ELISA_avg for the items listed next?
One number for each entry.

1. D domain of SEQ ID NO: 635 (designed binder) MGSWFEFNDRLDAISERLSALGGSEAELAYFEWQIAVFEKTLQNYKGKGNPEVEALTLEANAIFEELEAYRHN	3.9
2. D domain of SEQ ID NO: 615 (designed binder) MGSWFEFEYRLDAIIDRLFALGGSEAELAEFESMIANFEYSLQEYKGKGNPEVEALYFEADAIVDELTAYRHN	4

# context switch: different binder, same ELISA_avg
Supply measured ELISA_avg of D domain of SEQ ID NO: 425 (designed binder) MGSWTEFWERLNAIDERLFALGGSEAELAAFEKEIAAFESELQAYKGKGNPEVEWLRLYAAEIRSELQAYRHN in your reply.
4
